Entry source: the supplement of paper PMC6757056

Please go through the items and note down their normalized RNA/DNA level with ligand (log10).
B1: library; a variant is named by its letters at N, in order (parent)
chain: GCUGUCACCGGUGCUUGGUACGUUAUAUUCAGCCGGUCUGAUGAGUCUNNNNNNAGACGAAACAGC

Variants of: B1
ASSAY: normalized RNA/DNA level with ligand (relative to sTRSVctl = 100) (log10 (% of sTRSVctl)); HEK293T overexpressing SLC46A1; ligand concentration (+) RNA-Seq: 6 mM; higher = less ribozyme self-cleavage, higher mRNA level
CONDITION SUMMARY: with (6R,S)-folinic acid; ligand present: yes
Just the number.

Input line: Answer with reported normalized RNA/DNA level with ligand (log10) of CCAAUU
Output line: 2.05

Input line: Quickly give me recorded normalized RNA/DNA level with ligand (log10) for AAAGGA
Output line: 2

Input line: Supply normalized RNA/DNA level with ligand (log10) value. Item: UUGCUC
Output line: 2.02

Input line: Specify measured normalized RNA/DNA level with ligand (log10) for UAGCUU .
Output line: 2.02

Input line: Fill in reported normalized RNA/DNA level with ligand (log10) for this entry: GCCGAA
Output line: 2.05

Input line: Report normalized RNA/DNA level with ligand (log10) for CUCGAC
Output line: 2.01

Input line: State its normalized RNA/DNA level with ligand (log10): CCUCGG
Output line: 1.99

Input line: State its normalized RNA/DNA level with ligand (log10) for this variant: CUGCGA
Output line: 2.06

Input line: Recall and state the measured normalized RNA/DNA level with ligand (log10) for CCAUGA .
Output line: 2

Input line: Given AUUCUG , respond with its normalized RNA/DNA level with ligand (log10).
Output line: 1.99

Input line: Read off the recorded normalized RNA/DNA level with ligand (log10) for GAUUAU
Output line: 1.99

Input line: Please give measured normalized RNA/DNA level with ligand (log10) of the following entry: CAUCUU
Output line: 2

Input line: Look up and state reported normalized RNA/DNA level with ligand (log10) for CUGCUU
Output line: 2.04

Input line: Give recorded normalized RNA/DNA level with ligand (log10). UUCGGG
Output line: 2.01

Input line: Let me know recorded normalized RNA/DNA level with ligand (log10) for GUACUU , thanks.
Output line: 2.04

Input line: Retrieve normalized RNA/DNA level with ligand (log10) measured for GGGGUU and print it.
Output line: 2.02

Input line: For the variant GUGGGG , give its reported normalized RNA/DNA level with ligand (log10).
Output line: 2.03

Input line: Quote normalized RNA/DNA level with ligand (log10) reported for ACCGUC please.
Output line: 2.07

Input line: For the variant AUACGC , give its reported normalized RNA/DNA level with ligand (log10).
Output line: 2

Input line: Identify normalized RNA/DNA level with ligand (log10) associated with the variant AAAGUC
Output line: 2.03

Input line: Return the recorded normalized RNA/DNA level with ligand (log10) value; entry: GUUCUG
Output line: 1.99

Input line: Return the recorded normalized RNA/DNA level with ligand (log10) value; entry: GGGUUC
Output line: 2

Input line: Dear colleague, please send me the reported normalized RNA/DNA level with ligand (log10) for UUUGCG when you can.
Output line: 1.98

Input line: Look up and state reported normalized RNA/DNA level with ligand (log10) for GCGGCG
Output line: 2.1

Input line: Identify measured normalized RNA/DNA level with ligand (log10) associated with UGGUGC
Output line: 2.02

Input line: Provide one value: measured normalized RNA/DNA level with ligand (log10) of GCUGCU
Output line: 2.06

Input line: Write down normalized RNA/DNA level with ligand (log10) measured for item CCCCGU
Output line: 2.05

Input line: Using the record for GAGACA , state its measured normalized RNA/DNA level with ligand (log10).
Output line: 2.01

Input line: Determine its reported normalized RNA/DNA level with ligand (log10): GUAGUA
Output line: 1.98

Input line: Give the reported normalized RNA/DNA level with ligand (log10) for this variant. AAAGAG
Output line: 1.93

Input line: Report measured normalized RNA/DNA level with ligand (log10); entry is CACACG
Output line: 2.04

Input line: Fill in normalized RNA/DNA level with ligand (log10) for record ACGCUU
Output line: 2.05

Input line: For the variant CGGGAC , report normalized RNA/DNA level with ligand (log10).
Output line: 2.02

Input line: Read the entry AUGGCC and write its reported normalized RNA/DNA level with ligand (log10).
Output line: 2.04

Input line: Item CUUCUC : provide normalized RNA/DNA level with ligand (log10)
Output line: 2.02

Input line: Dear colleague, please send me the reported normalized RNA/DNA level with ligand (log10) for ACUUUU when you can.
Output line: 2

Input line: Report measured normalized RNA/DNA level with ligand (log10); entry is ACCACC
Output line: 2.06

Input line: Input AAACAC , output reported normalized RNA/DNA level with ligand (log10).
Output line: 2.01

Input line: Find the measured normalized RNA/DNA level with ligand (log10) of UGGCGA and report it.
Output line: 2.07

Input line: Answer with the recorded normalized RNA/DNA level with ligand (log10) for the variant listed here: CCCCCC
Output line: 2.02

Input line: Answer with the recorded normalized RNA/DNA level with ligand (log10) of CUUGUU only.
Output line: 2

Input line: Supply normalized RNA/DNA level with ligand (log10) value. Item: UACCUG
Output line: 1.99

Input line: Assign normalized RNA/DNA level with ligand (log10) to the following record: ACCCUU
Output line: 2.03

Input line: Specify measured normalized RNA/DNA level with ligand (log10) for ACUAAG .
Output line: 2

Input line: Fill in reported normalized RNA/DNA level with ligand (log10) for this entry: UCGGCA
Output line: 2.04

Input line: Could you please provide reported normalized RNA/DNA level with ligand (log10) for CCAUGU ? Thanks!
Output line: 2.03

Input line: Specify measured normalized RNA/DNA level with ligand (log10) for ACUCAC .
Output line: 2.05

Input line: Read the entry AGAGGC and write its reported normalized RNA/DNA level with ligand (log10).
Output line: 2.01

Input line: Hello, please tell me recorded normalized RNA/DNA level with ligand (log10) for this one: CCAUCG
Output line: 2.02

Input line: Please give the documented normalized RNA/DNA level with ligand (log10) of UCAACU
Output line: 2.04

Input line: Answer with the recorded normalized RNA/DNA level with ligand (log10) for the variant listed here: ACGGCC
Output line: 2.06

Input line: Entry GGGAAU needs its normalized RNA/DNA level with ligand (log10) filled in; supply it.
Output line: 2.02

Input line: Give normalized RNA/DNA level with ligand (log10) for the following variant: CGUACU
Output line: 2.04

Input line: Check the records and state normalized RNA/DNA level with ligand (log10) for GGUUCC
Output line: 2.03

Input line: Note normalized RNA/DNA level with ligand (log10) for the variant shown: UGUCAU
Output line: 2

Input line: Indicate the recorded normalized RNA/DNA level with ligand (log10) value for this variant: UCGCUA
Output line: 2.07

Input line: Hello, please tell me recorded normalized RNA/DNA level with ligand (log10) for this one: GACAUC
Output line: 2.04

Input line: Using known records, supply normalized RNA/DNA level with ligand (log10) for GAAGUA
Output line: 2.01

Input line: Identify the reported normalized RNA/DNA level with ligand (log10) for the following entry. GCUGGU
Output line: 1.99

Input line: Look up normalized RNA/DNA level with ligand (log10) of UCGUUG and report it.
Output line: 2.01

Input line: Give recorded normalized RNA/DNA level with ligand (log10). UGCGGA
Output line: 2.01

Input line: Complete the entry with normalized RNA/DNA level with ligand (log10) for CCUAGA
Output line: 2.05

Input line: Entry CCCUCG needs its normalized RNA/DNA level with ligand (log10) filled in; supply it.
Output line: 2

Input line: Write down normalized RNA/DNA level with ligand (log10) measured for item CGACCG
Output line: 1.99

Input line: Retrieve normalized RNA/DNA level with ligand (log10) measured for GAACGC and print it.
Output line: 1.99

Input line: Return normalized RNA/DNA level with ligand (log10) for the following variant: GGUAAU
Output line: 2.03

Input line: Look up normalized RNA/DNA level with ligand (log10) of UAUGAA and report it.
Output line: 1.98

Input line: Give the value of normalized RNA/DNA level with ligand (log10) reported for the following: AACGGA
Output line: 2.02

Input line: Provide one value: measured normalized RNA/DNA level with ligand (log10) of CGAUCC
Output line: 2.06

Input line: For the variant GGCGGG , give its measured normalized RNA/DNA level with ligand (log10) value.
Output line: 2.08

Input line: Give normalized RNA/DNA level with ligand (log10) for AGGCUU
Output line: 2.04

Input line: Indicate its recorded normalized RNA/DNA level with ligand (log10); the variant in question is AAGGAA
Output line: 2

Input line: Supply recorded normalized RNA/DNA level with ligand (log10) for GGAGUA here.
Output line: 2.03

Input line: Please give measured normalized RNA/DNA level with ligand (log10) of the following entry: GGCUUA
Output line: 2.03

Input line: Please look at this variant and report its normalized RNA/DNA level with ligand (log10): AAGUGC
Output line: 2.01

Input line: In one line, give reported normalized RNA/DNA level with ligand (log10) of the entry GAUGGA .
Output line: 2.02

Input line: Supply measured normalized RNA/DNA level with ligand (log10) of UACUUG in your reply.
Output line: 1.98

Input line: Indicate the recorded normalized RNA/DNA level with ligand (log10) value for this variant: CAGUAU
Output line: 2.02

Input line: Find the measured normalized RNA/DNA level with ligand (log10) of GACUGC and report it.
Output line: 2.02

Input line: Give the measured normalized RNA/DNA level with ligand (log10) for UAGAUG
Output line: 1.97

Input line: // Input: UCGGAG . Output its normalized RNA/DNA level with ligand (log10) only.
Output line: 1.97

Input line: Report normalized RNA/DNA level with ligand (log10) for AUAUCG
Output line: 2.03

Input line: Please list normalized RNA/DNA level with ligand (log10) recorded for the variant UUAAGA
Output line: 2.04

Input line: Output measured normalized RNA/DNA level with ligand (log10) for this item: CACCAA
Output line: 1.99

Input line: Using known records, supply normalized RNA/DNA level with ligand (log10) for ACGGAU
Output line: 2.01

Input line: Answer with reported normalized RNA/DNA level with ligand (log10) of UAGACA
Output line: 2

Input line: Identify the reported normalized RNA/DNA level with ligand (log10) for the following entry. CGUUGA
Output line: 2.02

Input line: Please give measured normalized RNA/DNA level with ligand (log10) of the following entry: GGUUCU
Output line: 2.05

Input line: # return recorded normalized RNA/DNA level with ligand (log10) for entry CGGAGG
Output line: 1.99

Input line: State, in one line, measured normalized RNA/DNA level with ligand (log10) of GGGGGA
Output line: 2.05

Input line: Write down normalized RNA/DNA level with ligand (log10) measured for item ACUAAC
Output line: 2.01
